# credit: patent EP3305781A1

Biological target: Trypsin (Homo sapiens, UniProt P07477)
Test: Biochemical inhibition assay, fluorogenic substrate FSR-AMC
Settings: read-out: Trypsin IC50; Trypsin 0.88 ng/mL; 30 min incubation with inhibitor; FSR-AMC 20 µM; Tris pH 7.5
OBSERVED PROPERTY: IC50

# MOLECULE, IC50
records = [
    ("Cc1nn(-c2ccccc2)c(C)c1NC(=O)COC(=O)Cc1cccc(C#N)c1", "> 200 µM"),
    ("Cc1nn(-c2ccccc2)c(C)c1NC(=O)COC(=O)Cn1c(C)cc2cccc(Cl)c21", "> 50 µM"),
    ("Cc1[nH]c2ccccc2c1CC(=O)OCC(=O)Nc1ccc(F)cn1", "50.4 µM"),
    ("Cc1nn(-c2ccccc2)c(C)c1NC(=O)COC(=O)Cc1ccsc1Cl", "> 200 µM"),
    ("Cc1ccc(NC(=O)COC(=O)Cc2c(C)[nH]c3ccccc23)cc1", "> 200 µM"),
    ("Cc1nn(-c2ccccc2)c(C)c1NC(=O)COC(=O)Cn1ccc2cc(Cl)ccc21", "> 50 µM"),
    ("Cc1[nH]c2ccccc2c1CC(=O)OCC(=O)NCc1ncc[nH]1", "> 200 µM"),
    ("Cc1nn(-c2ccccc2)c(C)c1N(C)C(=O)COC(=O)Cc1c(C)[nH]c2ccccc12", "9.1 µM"),
    ("Cc1nn(-c2ccccc2)c(C)c1NC(=O)COC(=O)C(C)c1c(C)[nH]c2ccccc12 (stereo not shown)", "> 200 µM"),
    ("Cc1[nH]c2ccccc2c1CC(=O)OCC(=O)NC(C)(C)C", "> 200 µM"),
]

Q: So what's the measured IC50 for this one? Cc1nn(-c2ccccc2)c(C)c1NC(=O)C(C)OC(=O)Cn1c(C)cc2ccccc21 (racemic)
Ans: > 50 µM

Q: So what's the measured IC50 for this one? Cc1[nH]c2ccccc2c1CC(=O)OCC(=O)Nc1ccccc1Cl
Ans: 114 µM

Q: So what's the measured IC50 for this one? CC(=O)Nc1cccc(CC(=O)OCC(=O)Nc2c(C)nn(-c3ccccc3)c2C)c1
Ans: > 200 µM

Q: So what's the measured IC50 for this one? Cc1nn(-c2ccccc2)c(C)c1NC(=O)COC(=O)Cc1ccc(Cl)s1
Ans: > 200 µM

* * *

Target: Trypsin (Homo sapiens)
Experiment: Biochemical inhibition assay, fluorogenic substrate FSR-AMC
label 1 if IC50 is below 70 µM. label 0 if not; exact matches included in label 0.

# CHEM SMILES, LABEL
records = [
    ("Cc1nn(-c2ccccc2)c(C)c1NC(=O)COC(=O)Cn1cc(C)c2ccccc21", "label 0"),
    ("Cc1nn(-c2ccccc2)c(C)c1NC(=O)COC(=O)Cn1c(C)cc2ccccc21", "label 1"),
    ("Cc1nn(-c2ccccc2)c(C)c1NC(=O)COC(=O)Cc1c[nH]c2ccccc12", "label 0"),
    ("Cc1nn(-c2ccccc2[N+](=O)[O-])c(C)c1NC(=O)COC(=O)Cn1c(C)cc2ccccc21", "label 1"),
]

Q: Field: below-cutoff. Rule: recorded IC50 strictly less than 70 µM. Subject: Cc1nn(-c2ccccc2)c(C)c1NC(=O)COC(=O)Cn1ccc2ccccc21
Ans: label 0

Q: Field: below-cutoff. Rule: recorded IC50 strictly less than 70 µM. Subject: Cc1cccc(-n2nc(C)c(NC(=O)COC(=O)Cn3c(C)cc4ccccc43)c2C)c1
Ans: label 1

Q: Field: below-cutoff. Rule: recorded IC50 strictly less than 70 µM. Subject: COc1ccc(Cn2nc(C)c(NC(=O)COC(=O)Cn3c(C)cc4ccccc43)c2C)cc1
Ans: label 0
